- SUBJECT_OF_TEST: Cytochrome P450 1A2 (Homo sapiens) (UniProt P05177)
- Sequence (P05177 whole entry, looked up): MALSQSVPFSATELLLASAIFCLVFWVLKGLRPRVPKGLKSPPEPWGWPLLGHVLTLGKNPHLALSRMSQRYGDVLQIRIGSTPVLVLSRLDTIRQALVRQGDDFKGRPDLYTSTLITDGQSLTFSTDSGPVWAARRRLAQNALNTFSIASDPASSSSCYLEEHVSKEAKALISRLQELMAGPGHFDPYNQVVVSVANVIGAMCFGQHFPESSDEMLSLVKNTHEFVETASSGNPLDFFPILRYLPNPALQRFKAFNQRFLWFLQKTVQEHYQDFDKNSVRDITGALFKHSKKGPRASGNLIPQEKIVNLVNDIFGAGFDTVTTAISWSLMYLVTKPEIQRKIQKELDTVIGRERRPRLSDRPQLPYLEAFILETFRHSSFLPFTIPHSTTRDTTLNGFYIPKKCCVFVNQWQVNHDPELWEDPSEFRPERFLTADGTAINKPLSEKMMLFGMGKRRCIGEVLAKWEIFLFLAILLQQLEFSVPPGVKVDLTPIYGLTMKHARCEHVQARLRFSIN
- PROCEDURE_DETAILS: Cytochrome P450 Family 1 Subfamily A Member 2 (CYP1A2) small molecule antagonists: luciferase reporter qHTS assay (AID 1671199); also: nearly all actives have a fitted effect of over 50% in size
- PARTICULARS: P450-Glo CYP1A2 enzyme, luciferin luminescence, 1 h; series mostly up to 53 µM
Records with an inconclusive call do not appear. Activity calls are given as the source filed them. Calls follow the shape of the dose curve; as a rule, active = well fitted inhibition curve with a large enough effect in the repeat runs; inconclusive = weak or mixed curves; inactive = no such curve, though single readings can be large or run the other way.
Field 'call' accepts active, inactive

Look over these answered cases.
INSERT INTO measurements (compound, subject_of_test, class) VALUES
  ('CCCCOCC(C)OCC(C)O (configuration not stated)', 'Cytochrome P450 1A2 (Homo sapiens) (UniProt P05177)', 'inactive'),
  ('CC1CCN(CCCC(=O)c2ccc(F)cc2)CC1', 'Cytochrome P450 1A2 (Homo sapiens) (UniProt P05177)', 'inactive'),
  ('O=c1[nH]c(=O)n([C@H]2O[C@H](CO)[C@@H](O)[C@@H]2O)cc1/C=C\Br', 'Cytochrome P450 1A2 (Homo sapiens) (UniProt P05177)', 'inactive'),
  ('COC(=O)C1=C(C)NC(C)=C(C(=O)OCC(C)=O)C1c1ccccc1[N+](=O)[O-] (configuration not stated)', 'Cytochrome P450 1A2 (Homo sapiens) (UniProt P05177)', 'active'),
  ('Cn1ccc2cc3c(cc21)CCN3C(=O)Nc1cccnc1', 'Cytochrome P450 1A2 (Homo sapiens) (UniProt P05177)', 'active'),
  ('Cc1ccccc1C(=O)O', 'Cytochrome P450 1A2 (Homo sapiens) (UniProt P05177)', 'inactive');

Returns: the outcome recorded for CC(C)(C)CC(C)(C)N in this assay.
active

Returns: the outcome recorded for C=CC(=O)OCCCCCC in this assay.
inactive

Returns: the outcome recorded for CCCCCCCCCCC1CO1 (configuration not stated) in this assay.
inactive

Returns: the outcome recorded for CCCCCN(CCCCC)C(=O)C(CCC(=O)O)NC(=O)c1ccc(Cl)c(Cl)c1 (configuration not stated) in this assay.
inactive

Returns: the outcome recorded for c1cc(CN2CCCCC2)cc(OCCCNc2nc3ccccc3s2)c1 in this assay.
inactive

Returns: the outcome recorded for C/C=C1\C(=O)C[C@H]2[C@@H]3CCC4=CC(=O)CC[C@]4(C)[C@H]3CC[C@]12C in this assay.
inactive

----------
Examples of compounds with documented activity change, negative = inhibition follow.
- SUBJECT_OF_TEST: Cytochrome P450 2D6 (Homo sapiens)
- PROCEDURE_DETAILS: Cytochrome P450 Family 2 Subfamily D Member 6 (CYP2D6) small molecule antagonists: luciferase reporter qHTS assay (AID 1671196); also: % is scaled to controls: 0 for no effect and ±100 for the full control effect; nearly all actives have a fitted effect of over 50% in size
- PARTICULARS: P450-Glo CYP2D6 enzyme assay, luciferin luminescence, 1 h; series mostly up to 115 µM
Records with an inconclusive call do not appear. The source made the active and inactive calls. Calls follow the shape of the dose curve; as a rule, active = well fitted inhibition curve with a large enough effect in the repeat runs; inconclusive = weak or mixed curves; inactive = no such curve, though single readings can be large or run the other way.

// fetch activity change, negative = inhibition given entry NCC[C@H](O)C(=O)N[C@@H]1C[C@H](N)[C@@H](O[C@H]2O[C@H](CN)[C@@H](O)[C@H](O)[C@H]2O)[C@H](O)[C@H]1O[C@H]1O[C@H](CO)[C@@H](O)[C@H](N)[C@H]1O
-0.464% [at 0.435 µM] (inactive)

// fetch activity change, negative = inhibition given entry FC(F)(F)C(F)(F)C(F)(F)C(F)(F)C(F)(F)C(F)(F)C(F)(F)C(F)(F)C(F)(F)C(F)(F)F
-5% [at 10.5 µM] (inactive)

// fetch activity change, negative = inhibition given entry C=C(C)C(=O)OCCCCCCCCCCCCCCCCCC
2.34% [at 23.6 µM] (inactive)

// fetch activity change, negative = inhibition given entry Cn1ccc2cc3c(cc21)CCN3C(=O)Nc1cccnc1
-16.8% [at 23.6 µM] (inactive)

// fetch activity change, negative = inhibition given entry C1CCCCCCCCCCC1
-0.464% [at 23.6 µM] (inactive)
